tested on: COLO 205; test: Cytotoxicity against human COLO205 cells after 48 hrs by sulforhodamine B assay; type: functional, cell-based; conditions: COLO 205, 48 h
pIC50: −log10 of the molar value.
This listing pairs compounds with measured pIC50.

{"smilesRepr": "O=C1C(=O)N(CCCCCCN2C(=O)c3ccccc3C2=O)c2ccccc21", "systemTested": "COLO 205", "pIC50": "< 4.00"}
{"smilesRepr": "O=C1C(=O)N(CCCCCCBr)c2ccccc21", "systemTested": "COLO 205", "pIC50": "< 4.00"}
{"smilesRepr": "O=C1C(=O)N(CCCCBr)c2ccccc21", "systemTested": "COLO 205", "pIC50": 4.27}
{"smilesRepr": "O=C1C(=O)N(CCCBr)c2ccccc21", "systemTested": "COLO 205", "pIC50": "< 4.00"}

Kindly review the next compound as well.
QUERY: Suppose we examine the compound O=C1C(=O)N(CCCCCBr)c2ccccc21 ; what pIC50 value has been reported?
RESULT: < 4.00
